A collection of molecules and their measured activity increase over dofetilide control, less the hit threshold
- target_of_assay: Voltage-gated inwardly rectifying potassium channel KCNH2 (Homo sapiens) (UniProt Q12809)
- Sequence (Q12809 whole entry, looked up): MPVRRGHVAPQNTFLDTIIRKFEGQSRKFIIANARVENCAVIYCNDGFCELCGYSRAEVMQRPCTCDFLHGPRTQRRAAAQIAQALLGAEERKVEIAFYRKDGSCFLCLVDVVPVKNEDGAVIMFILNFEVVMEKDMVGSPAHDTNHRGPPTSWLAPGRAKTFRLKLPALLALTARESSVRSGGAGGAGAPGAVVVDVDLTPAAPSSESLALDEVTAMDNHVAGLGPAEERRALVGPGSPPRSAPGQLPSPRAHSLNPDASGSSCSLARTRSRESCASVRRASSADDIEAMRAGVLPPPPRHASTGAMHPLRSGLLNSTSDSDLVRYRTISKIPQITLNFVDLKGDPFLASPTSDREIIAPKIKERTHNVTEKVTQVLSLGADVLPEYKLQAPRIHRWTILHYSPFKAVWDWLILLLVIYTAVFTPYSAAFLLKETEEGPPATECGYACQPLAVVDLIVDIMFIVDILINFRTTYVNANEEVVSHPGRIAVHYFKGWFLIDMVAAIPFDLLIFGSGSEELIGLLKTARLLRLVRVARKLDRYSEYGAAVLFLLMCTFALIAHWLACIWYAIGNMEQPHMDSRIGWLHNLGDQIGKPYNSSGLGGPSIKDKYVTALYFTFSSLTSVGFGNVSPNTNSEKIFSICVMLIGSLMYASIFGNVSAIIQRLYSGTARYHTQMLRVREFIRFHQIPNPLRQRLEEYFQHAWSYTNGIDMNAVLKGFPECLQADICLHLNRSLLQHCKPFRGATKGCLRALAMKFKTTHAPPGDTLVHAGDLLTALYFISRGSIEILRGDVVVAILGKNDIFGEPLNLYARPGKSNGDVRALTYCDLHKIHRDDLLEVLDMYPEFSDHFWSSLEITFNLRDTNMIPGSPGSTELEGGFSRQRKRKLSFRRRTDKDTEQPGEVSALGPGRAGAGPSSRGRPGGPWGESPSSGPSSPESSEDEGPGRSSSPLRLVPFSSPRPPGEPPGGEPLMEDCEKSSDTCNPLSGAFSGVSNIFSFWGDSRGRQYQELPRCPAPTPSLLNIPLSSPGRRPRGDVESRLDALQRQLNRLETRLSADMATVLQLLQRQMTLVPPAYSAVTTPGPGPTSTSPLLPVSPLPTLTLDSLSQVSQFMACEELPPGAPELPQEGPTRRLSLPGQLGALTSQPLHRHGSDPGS
- experimental_details: hERG protection against dofetilide inhibition, confirmation, cell-based, thallium flux, duplicate retest, dofetilide IC70 (AID 1835)
- condition_context: hERG cell line, FluxOR thallium flux, dofetilide-blocked; at 10 µM; active compounds read high
Among all 2,400 compounds or so, about 750 (31%) were called active. This is one part of the list.
Please reply with the bare figure in % and do not write the unit itself.

molecule: CCOc1cccc(Nc2cc3n(c(=O)n2)CCc2cc(OC)c(OC)cc2-3)c1
result_units: %
numeric_value: -22

For the next question, use this molecule.
**Q:** Looking for the measured activity increase over dofetilide control, less the hit threshold of C/C(=N\O)C1CC(CC(=O)O)C1(C)C (stereo not given) , can you help?
**A:** -13
